- Test system: primary human myelofibrosis samples
- Test Details: Colony formation assay in primary myelofibrosis samples (Example 2)
- Assay type: cell-based
- Experimental Context: Homo sapiens, sample MF 29 (JAK2); ruxolitinib alone; read-out: IC50 RUX
pIC50: −log10 of the molar value.
Assay Readout: pIC50

INSERT INTO measurements (compound, target_or_test_system, assay_readout, value_measured) VALUES
  ('N#CC[C@H](C1CCCC1)n1cc(-c2ncnc3[nH]ccc23)cn1 [ruxolitinib]', 'primary human myelofibrosis samples', 'pIC50', 6.67);

---

- Test system: primary human myelofibrosis samples
- Test Details: Colony formation assay in primary myelofibrosis samples (Example 2)
- Type: cell-based
- Experimental Context: Homo sapiens, 336 h, sample MF 77 (JAK2); single agent; colony formation 14 days; read-out: IC50 Compound (I)
- Protocol: Bone marrow or peripheral blood mononuclear cells from myelofibrosis (MF) patients were directly seeded in semisolid Methocult media (H3404) with Compound (I) alone, (at concentrations ranging from 1.25 to 10 nM) or in combination with Fed (at 100 and 300 nM) or Rux (at 30 and 100 nM). Treatment was added at the beginning and maintained throughout the 14-day incubation period without compound washout. […]
Assay Readout: IC50 (nM)

INSERT INTO results (smiles, value_measured) VALUES
  ('Cc1nnn(C)c1-c1cnc2c3ccc(C(C)(C)O)cc3n([C@H](c3ccccc3)C3CCOCC3)c2c1', 1.27);

---

- Test Details: First-in-human PK study of Compound (I) (Example 6)
- Format: in vivo
- Experimental Context: in vivo; single dose; 5 days on/2 days off schedule; human; read-out: terminal half-life (converted)
Assay Readout: half-life

INSERT INTO assay_data (smiles, value_measured) VALUES
  ('Cc1nnn(C)c1-c1cnc2c3ccc(C(C)(C)O)cc3n([C@H](c3ccccc3)C3CCOCC3)c2c1', '~64 h');
